Taken from the supplement of paper PMC8975748.

Could you please report measured z-score of subpopulation abundance for the items listed next?
System: Saccharomyces cerevisiae BY4741 SeMeCo community
method_description: z-score of subpopulation abundance vs DMSO median, subpopulation auxotrophic for LM; higher = larger share of this subpopulation than in DMSO controls
setup_conditions: 10 µM; 24 h; SM minimal medium; subpopulation (auxotrophy): LM
Where a name gives a salt, the structure may show the parent alone.
Numbers only.

Worked examples, 2 compounds total:
{"compound": "CO/N=C(\\C(=O)N[C@@H]1C(=O)N2C(C(=O)O)=C(CSc3nnnn3C)CS[C@H]12)c1csc(N)n1 [Cefmenoxime hydrochloride]", "reading": 0.27}
{"compound": "COc1cccc2c1C(=O)c1c(O)c3c(c(O)c1C2=O)CC(O)(C(=O)CO)CC3OC1CC(N)C(O)C(C)O1 (centres undefined) [Doxorubicin (Adriamycin) HCl]", "reading": -0.36}

Batch lookup, z-score of subpopulation abundance per entry.
1. CCN(CC)CC#CCOC(=O)C(O)(c1ccccc1)C1CCCCC1 (centres undefined) [Oxybutynin chloride]
2. CN[C@H]1CC[C@@H](c2ccc(Cl)c(Cl)c2)c2ccccc21 [Sertraline HCl]

Result block:
1. -0.32
2. -0.97

* * *

Could you please report measured mean cell size for the items listed next?
System: Saccharomyces cerevisiae BY4741 SeMeCo community
method_description: mean cell size (pixel area) (pixels); higher = larger cells
setup_conditions: 10 µM; 24 h; SM minimal medium
Counter-ions that a name gives are not always drawn.
One number for each entry.

{"molecule": "NC(=O)Cc1cccc(C(=O)c2ccccc2)c1N", "system_name": "Saccharomyces cerevisiae BY4741 SeMeCo community", "reading": 12.3}
{"molecule": "CN[C@H]1C(=O)N[C@@H]2Cc3ccc(cc3)Oc3cc4cc(c3O[C@@H]3O[C@H](C(=O)O)[C@@H](O)[C@H](O)[C@H]3NC(=O)CCCCCCCCC(C)C)Oc3ccc(cc3Cl)[C@@H](O)[C@@H]3NC(=O)[C@H](NC(=O)[C@@H]4NC(=O)[C@@H](NC2=O)c2cc(cc(O)c2Cl)Oc2cc1ccc2O)c1ccc(O)c(c1)-c1c(O[C@H]2O[C@H](CO)[C@@H](O)[C@H](O)[C@@H]2O)cc(O)cc1[C@@H](C(=O)NCCCN(C)C)NC3=O", "system_name": "Saccharomyces cerevisiae BY4741 SeMeCo community", "reading": 12.8}
{"molecule": "CCOC(=O)c1ccc(N)cc1 [Benzocaine hydrochloride]", "system_name": "Saccharomyces cerevisiae BY4741 SeMeCo community", "reading": 12.4}
{"molecule": "CCCCCOc1ccc(-c2cc(-c3ccc(C(=O)N[C@H]4C[C@@H](O)[C@@H](O)NC(=O)[C@@H]5[C@@H](O)[C@@H](C)CN5C(=O)[C@H]([C@H](O)CC(N)=O)NC(=O)[C@H]([C@H](O)[C@@H](O)c5ccc(O)c(OS(=O)(=O)O)c5)NC(=O)[C@@H]5C[C@@H](O)CN5C(=O)[C@H]([C@@H](C)O)NC4=O)cc3)no2)cc1 [Micafungin Sodium]", "system_name": "Saccharomyces cerevisiae BY4741 SeMeCo community", "reading": 12.4}
{"molecule": "CO[C@@H]1[C@H](OC(=O)/C=C/C=C/C=C/C=C/C(=O)O)CC[C@]2(CO2)[C@H]1[C@@]1(C)O[C@@H]1CC=C(C)C", "system_name": "Saccharomyces cerevisiae BY4741 SeMeCo community", "reading": 12.2}
{"molecule": "CN[C@@H]1[C@@H](O)[C@@H](O[C@@H]2[C@@H](O)[C@H](O[C@H]3OC(CN)=CC[C@H]3N)[C@@H](N)C[C@H]2N)OC[C@]1(C)O [Sisomicin sulfate]", "system_name": "Saccharomyces cerevisiae BY4741 SeMeCo community", "reading": 12.1}

Batch lookup, mean cell size per entry.
1. CCOc1cc(N)c([N+](=O)[O-])cc1C(=O)NC1CCN(CC2CC=CCC2)CC1 (stereo unspecified) [Cinitapride Hydrogen Tartrate]
2. Cc1nc2n(c(=O)c1CCN1CCC(c3noc4cc(F)ccc34)CC1)CCCC2
3. C#C[C@]1(O)CC[C@H]2[C@@H]3CCc4cc(OC5CCCC5)ccc4[C@H]3CC[C@@]21C

Result block:
12.3
12.3
12.4

Batch lookup, mean cell size per entry.
1. CC1(C)S[C@@H]2[C@H](NC(=O)[C@H](N)c3ccccc3)C(=O)N2[C@H]1C(=O)O [Ampicillin Trihydrate]
2. Cc1cc(NS(=O)(=O)c2ccc(N)cc2)nc(C)n1

Result block:
1: 12.4; 2: 12.1

* * *

Test system: Saccharomyces cerevisiae BY4741 SeMeCo community
method_description: z-score of subpopulation abundance vs DMSO median, subpopulation auxotrophic for HUM; higher = larger share of this subpopulation than in DMSO controls
setup_conditions: 10 µM; 24 h; SM minimal medium; subpopulation (auxotrophy): HUM
Where a name gives a salt, the structure may show the parent alone.
The threshold is inclusive: z-score of subpopulation abundance of exactly 0.5 counts as 1.0; values below receive 0.0.

{"compound": "Nc1c(CC(=O)O)cccc1C(=O)c1ccc(Br)cc1 [Bromfenac Sodium]", "label_value": 0.0}
{"compound": "Nc1cc(C(Cl)=C(Cl)Cl)c(S(N)(=O)=O)cc1S(N)(=O)=O [Clorsulon]", "label_value": 1.0}

Query block: Does CCCCCCCCCC(=O)NC1C(Oc2c3cc4cc2Oc2ccc(cc2Cl)C(OC2OC(CO)C(O)C(O)C2NC(C)=O)C2NC(=O)C(NC(=O)C4NC(=O)C4NC(=O)C(Cc5ccc(c(Cl)c5)O3)NC(=O)C(N)c3ccc(O)c(c3)Oc3cc(O)cc4c3)c3ccc(O)c(c3)-c3c(OC4OC(CO)C(O)C(O)C4O)cc(O)cc3C(C(=O)O)NC2=O)OC(CO)C(O)C1O (stereo not given) [Teicoplanin] have a reported z-score of subpopulation abundance of at least 0.5?
Result block: 1.0

Query block: Does Oc1c(Cl)cc(Cl)cc1Sc1cc(Cl)cc(Cl)c1O [Bithionol] have a reported z-score of subpopulation abundance of at least 0.5?
Result block: 1.0

Query block: Does C[C@]12CC[C@@H]3c4ccc(O)cc4CC[C@H]3[C@@H]1CC[C@@H]2O [Estradiol] have a reported z-score of subpopulation abundance of at least 0.5?
Result block: 0.0

Query block: Does CC1(C)CC[C@]2(C(=O)O)CC[C@]3(C)C(=CC[C@@H]4[C@@]5(C)CC[C@H](O)C(C)(C)[C@@H]5CC[C@]43C)[C@@H]2C1 [Oleanolic Acid] have a reported z-score of subpopulation abundance of at least 0.5?
Result block: 1.0

Query block: Does CCC(=O)O[C@@H]1CC(=O)O[C@H](C)C/C=C/C=C/[C@H](O)[C@H](C)C[C@H](CC=O)[C@H](O[C@@H]2O[C@H](C)[C@@H](O[C@H]3C[C@@](C)(O)[C@@H](OC(=O)CC)[C@H](C)O3)[C@H](N(C)C)[C@H]2O)[C@H]1OC [Midecamycin] have a reported z-score of subpopulation abundance of at least 0.5?
Result block: 1.0

Query block: Does CCCCN1CCCC[C@H]1C(=O)Nc1c(C)cccc1C [Levobupivacaine HCl] have a reported z-score of subpopulation abundance of at least 0.5?
Result block: 0.0

Query block: Does CCn1cc(C(=O)O)c(=O)c2cc(F)c(N3CCNCC3)nc21 [Enoxacin Sesquihydrate] have a reported z-score of subpopulation abundance of at least 0.5?
Result block: 1.0

Query block: Does C[C@@H](O)[C@H]1C(=O)N2C(C(=O)O)=C(S[C@@H]3CN[C@H](C(=O)N(C)C)C3)[C@H](C)[C@H]12 [Meropenem] have a reported z-score of subpopulation abundance of at least 0.5?
Result block: 0.0

Query block: Does CC(C)c1nc(N(C)S(C)(=O)=O)nc(-c2ccc(F)cc2)c1/C=C/[C@@H](O)C[C@@H](O)CC(=O)O [Rosuvastatin Calcium] have a reported z-score of subpopulation abundance of at least 0.5?
Result block: 1.0

Query block: Does COc1cc(NS(=O)(=O)c2ccc(N)cc2)ncn1 [Sulfamonomethoxine] have a reported z-score of subpopulation abundance of at least 0.5?
Result block: 0.0

Query block: Does Cn1cc(C(=O)[C@@H]2CCc3[nH]cnc3C2)c2ccccc21 [Ramosetron Hydrochloride] have a reported z-score of subpopulation abundance of at least 0.5?
Result block: 0.0

Query block: Does CCN1CC(CCN2CCOCC2)C(c2ccccc2)(c2ccccc2)C1=O (stereo not given) [Doxapram HCl] have a reported z-score of subpopulation abundance of at least 0.5?
Result block: 1.0

* * *

Test system: Saccharomyces cerevisiae BY4741 SeMeCo community
method_description: z-score of subpopulation abundance vs DMSO median, subpopulation auxotrophic for HLU; higher = larger share of this subpopulation than in DMSO controls
setup_conditions: 10 µM; 24 h; SM minimal medium; subpopulation (auxotrophy): HLU
Counter-ions that a name gives are not always drawn.
The threshold is inclusive: z-score of subpopulation abundance of exactly 0.2 counts as Criterion met; values below receive Criterion not met.

{"molecule": "Cc1ccccc1C(OCCN(C)C)c1ccccc1 (configuration not stated) [Orphenadrine Citrate]", "label_value": "Criterion met"}
{"molecule": "C=CC[N+]1([C@H]2C[C@H]3[C@@H]4CC[C@H]5C[C@H](O)[C@@H](N6CCOCC6)C[C@]5(C)[C@H]4CC[C@]3(C)[C@H]2OC(C)=O)CCCC1 [Rocuronium Bromide]", "label_value": "Criterion not met"}
{"molecule": "CCCc1nn(C)c2c(=O)[nH]c(-c3cc(S(=O)(=O)N4CCN(C)CC4)ccc3OCC)nc12 [Sildenafil Mesylate]", "label_value": "Criterion not met"}
{"molecule": "Nc1c(CC(=O)O)cccc1C(=O)c1ccccc1 [Amfenac Sodium Monohydrate]", "label_value": "Criterion met"}
{"molecule": "COc1cc2c(cc1OC)C(=O)C(CC1CCN(Cc3ccccc3)CC1)C2 (configuration not stated)", "label_value": "Criterion not met"}

Query block: Does `COc1cc2c(cc1OC)[C@@H]1Cc3ccc(OC)c(OC)c3CN1CC2` have a reported z-score of subpopulation abundance of at least 0.2?
Result block: Criterion met
